target: Human P2X4 receptor (P2X4R) (Homo sapiens); construct: expressed in transfected cells; host or cells: HEK-293; experiment: Receptor-mediated calcium entrance assay (Calcium Assay), P2X4R transfected HEK-293 cells; assay type: cell-based; settings: HEK293, compound at 5 μM, 1 mM ATP stimulus, read-out: Percentage of activity remains in the presence of the compound at 5 μM, P2X4R (Calcium Assay)
Sequence (Q99571 whole entry): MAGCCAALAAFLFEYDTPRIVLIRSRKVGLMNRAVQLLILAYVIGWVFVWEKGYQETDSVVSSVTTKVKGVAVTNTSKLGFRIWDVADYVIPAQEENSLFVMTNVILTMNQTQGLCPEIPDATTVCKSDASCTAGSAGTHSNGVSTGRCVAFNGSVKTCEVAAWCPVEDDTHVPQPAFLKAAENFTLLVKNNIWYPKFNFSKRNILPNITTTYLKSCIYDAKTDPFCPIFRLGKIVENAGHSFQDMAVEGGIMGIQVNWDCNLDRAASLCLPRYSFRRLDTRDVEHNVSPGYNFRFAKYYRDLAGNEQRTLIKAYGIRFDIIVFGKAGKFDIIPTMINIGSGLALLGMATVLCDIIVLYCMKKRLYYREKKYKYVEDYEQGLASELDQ
Reported remaining activity at 5 µM by item:
# output: bare number, implied unit %

Guide cases for remaining activity at 5 µM, answers given:
Compound	Parameter measured	Unit descriptor	Value
O=C(CCc1ccccc1)NC1CCCN(S(=O)(=O)c2ccc(F)c(Cl)c2)C1 (stereo not shown) [#43]	remaining activity at 5 µM	%	48.4
CC1CCCCN1c1ccc(S(=O)(=O)N2CCCC(NC(=O)CCc3ccccc3)C2)cc1 (stereo not shown) [#47]	remaining activity at 5 µM	%	93.3
O=C(CCc1ccccc1)NC1CCCN(c2ccc(S(=O)(=O)NCc3ccco3)cc2)C1 (stereo not shown) [#52]	remaining activity at 5 µM	%	52.8

Lookup: Respond only with remaining activity at 5 µM recorded for O=C(CCc1ccccc1)N1CCN(S(=O)(=O)c2ccc(N3CCCC3)cc2)CC1 [#35]
Found: 70.7

---

Biological target: Human P2X2 receptor (P2X2R) (Homo sapiens, UniProt Q9UBL9)
Construct: expressed in transfected cells; host or cells: HEK-293
Sequence (Q9UBL9 1-471): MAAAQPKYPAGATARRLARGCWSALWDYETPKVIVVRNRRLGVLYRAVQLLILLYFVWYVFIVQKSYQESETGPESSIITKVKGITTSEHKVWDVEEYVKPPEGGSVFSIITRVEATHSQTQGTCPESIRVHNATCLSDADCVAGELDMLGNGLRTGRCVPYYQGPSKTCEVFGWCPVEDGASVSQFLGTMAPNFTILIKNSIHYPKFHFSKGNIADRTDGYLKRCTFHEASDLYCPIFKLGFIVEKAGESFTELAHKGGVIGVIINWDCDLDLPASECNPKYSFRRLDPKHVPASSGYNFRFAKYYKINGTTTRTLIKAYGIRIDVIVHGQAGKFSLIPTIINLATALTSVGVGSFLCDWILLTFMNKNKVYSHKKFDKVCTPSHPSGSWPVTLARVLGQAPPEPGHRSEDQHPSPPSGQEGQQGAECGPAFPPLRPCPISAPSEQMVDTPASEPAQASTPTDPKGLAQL
Test: Yo-Pro-1 uptake assay, P2X2R transfected HEK-293 cells
Format: cell-based
Details: HEK293, compound at 5 μM, 5 μM ATP stimulus, read-out: Percentage of activity remains in the presence of the compound at 5 μM, P2X2R (Yo-Pro-1 Assay)
Each record is given Fulfilled if its reported remaining activity at 5 µM is strictly below 60%. Records at or above 60% are given Not fulfilled.

Compound	Classification
NS(=O)(=O)c1ccc(N2CCCC(NC(=O)CCc3ccccc3)C2)cc1 (stereo not drawn)	Not fulfilled
O=C(NCCc1ccccc1)C1CCN(S(=O)(=O)c2ccc(N3CCOCC3)cc2)CC1	Not fulfilled
O=C(CCc1ccccc1)NC1CCCN(c2ccc(S(=O)(=O)NC3CCCCC3)cc2)C1 (stereo not drawn)	Fulfilled
O=S(=O)(c1ccccc1)C1CN(S(=O)(=O)c2ccc(N3CCOCC3)cc2)C1	Fulfilled
CS(=O)(=O)c1ccc(N2CCCC(NC(=O)CCc3ccccc3)C2)cc1 (stereo not drawn)	Fulfilled

Lookup: # TODO verify remaining activity at 5 µM < 60% strictly for this compound: O=C1CCC(N2Cc3c(NC(=O)CCc4ccccc4)cccc3C2=O)C(=O)N1 (stereo not drawn)
Found: Not fulfilled

Lookup: Consider CC(C)N(C(C)C)S(=O)(=O)c1ccc(N2CCCC(NC(=O)CCc3ccccc3)C2)cc1 (stereo not drawn) . Does its remaining activity at 5 µM lie strictly below 60%?
Found: Fulfilled

Lookup: # TODO verify remaining activity at 5 µM < 60% strictly for this compound: `NC(=O)c1cc(Br)cc(N2CCOCC2)c1`
Found: Not fulfilled

---

biological target: P2X2R (Homo sapiens); construct: expressed in transfected cells; host or cells: HEK-293; experiment: Receptor-mediated calcium entrance assay (Calcium Assay), P2X2R; format: cell-based; conditions: compound at 5 μM, read-out: Percentage of activity remains in the presence of the compound at 5 μM, P2X2R (Calcium Assay)
Labelling: remaining activity at 5 µM reported below 70% becomes 1 (yes); at or above becomes 0 (no).

Consider the worked cases shown below.
Compound	Target	Classification
COCCOc1ccc(S(=O)(=O)N2CCCC(NC(=O)CCc3ccccc3)C2)cc1 (stereo not shown)	P2X2R (Homo sapiens)	1 (yes)
CC(C)OC1CCN(c2ccc(S(=O)(=O)N3CCCC(NC(=O)CCc4ccccc4)C3)cc2)CC1 (stereo not shown)	P2X2R (Homo sapiens)	0 (no)
O=C(CCc1ccccc1)NC1CCCN(S(=O)(=O)c2ccc(N3CCC(C(F)(F)F)CC3)cc2)C1 (stereo not shown)	P2X2R (Homo sapiens)	1 (yes)
CC(C)(C)OC(=O)N1CCN(c2ccc(S(=O)(=O)N3CCN(C(=O)CCc4ccccc4)CC3)cc2)CC1	P2X2R (Homo sapiens)	0 (no)
O=C(CCc1ccccc1)NC1CCCN(c2ccc(S(=O)(=O)NC3CCCCC3)cc2)C1 (stereo not shown)	P2X2R (Homo sapiens)	0 (no)

Lookup: Lab log: compare recorded remaining activity at 5 µM with 70%; is it strictly lower for O=C(NCCc1ccccc1)C1CCCN(S(=O)(=O)c2ccc(N3CCOCC3)cc2)C1 (stereo not shown) ?
Found: 0 (no)

Lookup: Identify whether the compound `O=S(=O)(c1ccccc1)C1CN(S(=O)(=O)c2ccc(N3CCOCC3)cc2)C1` records remaining activity at 5 µM below 70%.
Found: 1 (yes)

---

Target: P2X7R (Homo sapiens)
Construct: expressed in transfected cells; host or cells: HEK-293
Sequence (Q99572 1-595): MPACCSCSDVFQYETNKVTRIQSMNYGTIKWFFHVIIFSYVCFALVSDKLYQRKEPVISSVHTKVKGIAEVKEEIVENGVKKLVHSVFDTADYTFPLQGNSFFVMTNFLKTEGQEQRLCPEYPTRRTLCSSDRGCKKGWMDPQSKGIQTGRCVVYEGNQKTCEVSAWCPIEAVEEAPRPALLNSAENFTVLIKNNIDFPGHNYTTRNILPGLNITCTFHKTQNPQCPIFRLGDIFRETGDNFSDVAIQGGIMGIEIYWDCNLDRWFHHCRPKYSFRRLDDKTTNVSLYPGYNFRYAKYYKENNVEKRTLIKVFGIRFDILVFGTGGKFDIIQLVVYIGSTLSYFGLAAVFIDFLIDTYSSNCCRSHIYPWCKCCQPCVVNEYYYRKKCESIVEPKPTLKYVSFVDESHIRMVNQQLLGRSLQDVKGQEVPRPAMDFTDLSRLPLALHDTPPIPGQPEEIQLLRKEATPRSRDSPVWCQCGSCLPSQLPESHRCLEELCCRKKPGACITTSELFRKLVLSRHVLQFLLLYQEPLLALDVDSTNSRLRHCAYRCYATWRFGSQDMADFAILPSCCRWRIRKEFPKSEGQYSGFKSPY
Assay: Yo-Pro-1 uptake assay (Yo-Pro-1 Assay) in HEK-293 cells transiently transfected with P2X7R
Format: cell-based
Conditions: HEK293; compound at 5 μM; 30 μM bzATP stimulus; reading 1 hour after stimulation; transfected HEK-293 cells; read-out: Percentage of activity remains in the presence of the compound at 5 μM, P2X7R (Yo-Pro-1 Assay)
Description: Yo-Pro-1 Iodide (Cat. No Y3603 from Fisher Scientific) is a fluorescent DNA-binding dye with a MW of 629 Da. This method is based upon the Yo-Pro-1 entrance to cells through the dilated or “large pore form” of P2X7R and its binding to intracellular DNA whereby it increases its fluorescence intensity (J. Pharmacol. Exp. Ther. 308, 1053-1061). […] This Yo-Pro-1 uptake was measured in HEK-293 cells transiently transfected with P2X7R (J. Biol. Chem. 290, 7930-7942). […]
Recorded remaining activity at 5 µM, one value per entry.

Lookup: Fetch value of remaining activity at 5 µM on P2X7R (Homo sapiens) for CC(C)(C)OC(=O)N1CCC(C2CCN(c3ccc(S(=O)(=O)N4CCCC(NC(=O)CCc5ccccc5)C4)cc3)CC2)CC1 (stereo not drawn) .
Found: 18.3%

Lookup: # return remaining activity at 5 µM of `O=C(CCc1ccccc1)N1CCN(S(=O)(=O)c2ccc(N3CCCCC3)cc2)CC1` (system: P2X7R (Homo sapiens))
Found: 4.8%

Lookup: State recorded remaining activity at 5 µM with P2X7R (Homo sapiens), entry O=C(CCc1ccccc1)NC1CCCN(S(=O)(=O)c2ccc(N3CCCC3)cc2)C1 (stereo not drawn) , no comment.
Found: 0.8%

---

biological target: Human P2X2 receptor (P2X2R) (Homo sapiens, UniProt Q9UBL9); construct: expressed in transfected cells; host or cells: HEK-293; experiment: Yo-Pro-1 uptake assay, P2X2R transfected HEK-293 cells; type: cell-based; conditions: HEK293, compound at 5 μM, 5 μM ATP stimulus, read-out: Percentage of activity remains in the presence of the compound at 5 μM, P2X2R (Yo-Pro-1 Assay)
Where a name gives a salt, the structure may show the parent alone.
Parameter measured: remaining activity at 5 µM (%)
Write the value in % as a bare number.

Before answering, review these 5 worked examples.
Molecule	Target	Value
CC1CCN(c2ccc(S(=O)(=O)N3CCCC(NC(=O)CCc4ccccc4)C3)cc2)CC1 (stereo not shown)	Human P2X2 receptor (P2X2R) (Homo sapiens, UniProt Q9UBL9)	69.1
O=C(NCCc1ccccc1)C1CCCN(S(=O)(=O)c2ccc(N3CCOCC3)cc2)C1 (stereo not shown)	Human P2X2 receptor (P2X2R) (Homo sapiens, UniProt Q9UBL9)	70.9
CC(C)(C)OC(=O)N1CCC(C2CCN(c3ccc(S(=O)(=O)N4CCCC(NC(=O)CCc5ccccc5)C4)cc3)CC2)CC1 (stereo not shown)	Human P2X2 receptor (P2X2R) (Homo sapiens, UniProt Q9UBL9)	61.4
CC(C)(C)OC(=O)N1CCN(c2ccc(S(=O)(=O)N3CCN(C(=O)CCc4ccccc4)CC3)cc2)CC1	Human P2X2 receptor (P2X2R) (Homo sapiens, UniProt Q9UBL9)	64
O=C(CCc1ccccc1)NC1CCCN(S(=O)(=O)c2ccc(N3CCCCC3)cc2)C1 (stereo not shown)	Human P2X2 receptor (P2X2R) (Homo sapiens, UniProt Q9UBL9)	55.5

Lookup: Give Human P2X2 receptor (P2X2R) (Homo sapiens, UniProt Q9UBL9) remaining activity at 5 µM for the following molecule: O=C(CCc1ccccc1)NC1CCCN(c2ccc(S(=O)(=O)N3CCCCC3)cc2)C1 (stereo not shown)
Found: 81.7

Lookup: Recall the reported remaining activity at 5 µM of O=C(CCc1ccccc1)NC1CCCN(S(=O)(=O)c2ccc(N3CCCC3)cc2)C1 (stereo not shown) when tested on Human P2X2 receptor (P2X2R) (Homo sapiens, UniProt Q9UBL9).
Found: 48.9

Lookup: State remaining activity at 5 µM (Human P2X2 receptor (P2X2R) (Homo sapiens, UniProt Q9UBL9)) of O=C(CCc1ccccc1)NC1CCCN(c2ccc(S(=O)(=O)NCc3ccco3)cc2)C1 (stereo not shown) .
Found: 45.8

Lookup: For Human P2X2 receptor (P2X2R) (Homo sapiens, UniProt Q9UBL9), give the measured remaining activity at 5 µM of the entry O=C(CCc1ccccc1)NC1CCCN(c2ccc(S(=O)(=O)N3CCCC3)cc2)C1 (stereo not shown)
Found: 85.4

Lookup: Enter recorded remaining activity at 5 µM with Human P2X2 receptor (P2X2R) (Homo sapiens, UniProt Q9UBL9) for O=C(CCc1ccccc1)N1CCNCC1 [#29, hydrochloride] here.
Found: 89.4
